The following compounds are listed with their measured Ki values.
biological target: cathepsin L (Homo sapiens, UniProt P07711); assay: Inhibition of cathepsin L, fluorogenic substrate Z-Phe-Arg-AMC; assay type: biochemical; conditions: 50 mM acetate, pH 5.5, 2.5 mM EDTA, 2.5 mM DTT; Dixon plot; read-out: cathepsin L (Ki μM)
Sequence (P07711 114-333, species assumed): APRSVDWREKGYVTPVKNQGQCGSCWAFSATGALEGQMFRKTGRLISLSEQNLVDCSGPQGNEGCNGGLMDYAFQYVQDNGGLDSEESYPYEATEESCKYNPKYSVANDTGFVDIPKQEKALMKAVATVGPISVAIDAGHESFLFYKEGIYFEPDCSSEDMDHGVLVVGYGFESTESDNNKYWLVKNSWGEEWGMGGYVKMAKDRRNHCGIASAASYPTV
Field: numeric (µM). Do not append units.

Below, each entry is followed by its recorded Ki result.
1) O=C(NC(CCc1ccccc1)S(=O)(=O)CF)[C@H](Cc1ccccc1)NC(=O)N1CCOCC1 (stereo partly drawn) [Mu--Phe--HphαSO2 CH2 F] = 1.5
2) O=C(O)CCC(=O)N[C@@H](Cc1ccc2ccccc2c1)C(=O)N[C@@H](CCc1ccccc1)CCS(=O)(=O)c1ccccc1 [Suc--Np2--HphγSO2 Ph] = 2.3

Moving on to the next compound.
Indicate the recorded Ki value for this compound: CC(C)C[C@H](NC(=O)N1CCOCC1)C(=O)NC(CCc1ccccc1)S(=O)(=O)Cc1ccccc1 (stereo partly drawn) [Mu--Leu--HphαSO2 Bzl]
0.6

Where these numbers come from: patent US5776718A
